- ASSAYED TARGET: T1, β16β17 (erythrocyte β-spectrin residues 1898–2083), wild type (human, UniProt P11277 1898-2083)
- T1 construct: erythrocyte β-spectrin, human, residues 1898-2083 (β16 plus the incomplete 17th domain); synthetic gene (GenScript) in a modified pRSETA plasmid; source: E. coli C41(DE3), purified (Ni2+ agarose, thrombin cleavage, gel filtration)
- T1 sequence (looked up): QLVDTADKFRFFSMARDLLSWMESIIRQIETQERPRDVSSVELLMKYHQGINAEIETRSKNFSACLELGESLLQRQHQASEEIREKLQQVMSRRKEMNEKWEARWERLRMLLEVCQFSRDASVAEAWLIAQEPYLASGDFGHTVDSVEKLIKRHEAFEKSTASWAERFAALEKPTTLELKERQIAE
- ASSAY TEXT: ITC; β16β17 at 25–50 μM in the cell titrated with 15–20 injections to 2–2.5 eq of α0α1; one-site binding model; PBS (50 mM sodium phosphate, 150 mM NaCl, pH 7.04), 25 °C; mutants only against the wild-type partner
- CONDITION SET: both partners purified
MEASURED ENDPOINT: Ka (M⁻¹)
# value in M⁻¹; strip the unit string

Solved cases below.
# BINDER, UNITS OF MEASURE, Ka
measured = [
    ("α0α1 E103A (domain or fragment, human, UniProt P02549 2-163, looked up, mutant of m1; also called E44A; source: E. coli C41(DE3), purified (Ni2+ agarose, thrombin cleavage, gel filtration)) EQFPKETVVESSGPKVLETAEEIQERRQEVLTRYQSFKERVAARGQKLEDSYHLQVFKRDADDLGKWIMEKVNILTDKSYEDPTNIQGKYQKHQSLEAEVQTKSRLMSELEKTREERFTMGHSAHEETKAHIEELRHLWDLLLELTLEKGDQLLRALKFQQY", "M⁻¹", 810000),
    ("α0α1 Q106A (domain or fragment, human, UniProt P02549 2-163, looked up, mutant of m1; also called Q47A; source: E. coli C41(DE3), purified (Ni2+ agarose, thrombin cleavage, gel filtration)) EQFPKETVVESSGPKVLETAEEIQERRQEVLTRYQSFKERVAERGAKLEDSYHLQVFKRDADDLGKWIMEKVNILTDKSYEDPTNIQGKYQKHQSLEAEVQTKSRLMSELEKTREERFTMGHSAHEETKAHIEELRHLWDLLLELTLEKGDQLLRALKFQQY", "M⁻¹", "1.3e+06"),
    ("α0α1 E85A (domain or fragment, human, UniProt P02549 2-163, looked up, mutant of m1; also called E26A; source: E. coli C41(DE3), purified (Ni2+ agarose, thrombin cleavage, gel filtration)) EQFPKETVVESSGPKVLETAEEIQARRQEVLTRYQSFKERVAERGQKLEDSYHLQVFKRDADDLGKWIMEKVNILTDKSYEDPTNIQGKYQKHQSLEAEVQTKSRLMSELEKTREERFTMGHSAHEETKAHIEELRHLWDLLLELTLEKGDQLLRALKFQQY", "M⁻¹", "1.2e+06"),
]

Now for another entry.
Report Ka for α0α1 E99A (domain or fragment, human, UniProt P02549 2-163, looked up, mutant of m1; also called E40A; source: E. coli C41(DE3), purified (Ni2+ agarose, thrombin cleavage, gel filtration)) EQFPKETVVESSGPKVLETAEEIQERRQEVLTRYQSFKARVAERGQKLEDSYHLQVFKRDADDLGKWIMEKVNILTDKSYEDPTNIQGKYQKHQSLEAEVQTKSRLMSELEKTREERFTMGHSAHEETKAHIEELRHLWDLLLELTLEKGDQLLRALKFQQY please.
900000

The values you see were collected from paper PMC9082959.
